Molecular target: T1, wildtype feline IL-31 protein (Feline_IL31_wildtype) (feline)
T1 construct: Full length feline IL-31 with C-terminal His tag, secreted from ExpiCHO cells; also called fIL-31
T1 chain: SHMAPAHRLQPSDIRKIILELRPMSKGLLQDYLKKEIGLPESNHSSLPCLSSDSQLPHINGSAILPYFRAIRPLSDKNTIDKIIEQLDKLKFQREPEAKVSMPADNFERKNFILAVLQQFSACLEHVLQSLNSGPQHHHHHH
Assay: SPR (Biacore), IL-31 on chip, 1:1 fit
Description: The affinity with which candidate mAbs bind canine and feline IL-31 was determined using surface plasmon resonance (SPR) on a Biacore system (Biocore Life Sciences (GE Healthcare), Uppsala, Sweden). […] Chips were quenched with ethanolamine and the affinity with which all candidate mAbs bound to the immobilized IL-31 was evaluated. […]
pKd: −log10 of the molar value.
Reported Property: pKd

Feline 15H05 1.1 FW1_3 (antibody, V domains shown, Printed as 'Feline 15H05 1.1 FW13') VH: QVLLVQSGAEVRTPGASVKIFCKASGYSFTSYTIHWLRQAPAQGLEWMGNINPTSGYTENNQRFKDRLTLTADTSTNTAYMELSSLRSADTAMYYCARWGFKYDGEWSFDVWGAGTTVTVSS VL: DIQMNQSPSSLSASLGDTITVTCRASQGISIWLSWYQQKPGKVPKLLIYKASNLHIGVPPRFSGSGSGTHFTLTITSLQPEDIATYYCLQSQTYPLTFGGGTKLEIK ... 10.17
Feline 15H05 3.1 (antibody, V domains shown, Feline heavy and kappa constant regions) VH: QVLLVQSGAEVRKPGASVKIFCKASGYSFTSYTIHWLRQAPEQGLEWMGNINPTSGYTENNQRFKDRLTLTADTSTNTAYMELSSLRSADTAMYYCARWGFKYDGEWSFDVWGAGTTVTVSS VL: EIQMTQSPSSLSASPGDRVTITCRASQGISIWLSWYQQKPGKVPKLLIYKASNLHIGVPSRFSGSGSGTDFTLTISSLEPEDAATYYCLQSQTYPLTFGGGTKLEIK ... 7.43
Feline 15H05 1.1 (antibody, V domains shown, Feline heavy and kappa constant regions) VH: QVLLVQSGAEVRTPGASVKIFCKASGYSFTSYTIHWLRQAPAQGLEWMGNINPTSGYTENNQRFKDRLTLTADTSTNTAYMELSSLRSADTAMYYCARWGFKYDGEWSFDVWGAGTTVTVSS VL: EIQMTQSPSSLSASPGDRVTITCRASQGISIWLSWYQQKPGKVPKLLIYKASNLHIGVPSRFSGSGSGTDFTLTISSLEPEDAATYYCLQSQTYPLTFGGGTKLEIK ... 7.87
Feline 15H05 1.1 FW3 (antibody, V domains shown) VH: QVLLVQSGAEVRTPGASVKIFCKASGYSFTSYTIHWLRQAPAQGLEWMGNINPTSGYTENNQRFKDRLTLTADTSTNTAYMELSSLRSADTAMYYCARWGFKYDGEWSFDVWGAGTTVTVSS VL: EIQMTQSPSSLSASPGDRVTITCRASQGISIWLSWYQQKPGKVPKLLIYKASNLHIGVPPRFSGSGSGTHFTLTITSLQPEDIATYYCLQSQTYPLTFGGGTKLEIK ... 10.25
Feline 11E12 1.1 FW2 (antibody, V domains shown, Feline 11E12 VL1 with the mouse FW2; Feline heavy and kappa constant regions) VH: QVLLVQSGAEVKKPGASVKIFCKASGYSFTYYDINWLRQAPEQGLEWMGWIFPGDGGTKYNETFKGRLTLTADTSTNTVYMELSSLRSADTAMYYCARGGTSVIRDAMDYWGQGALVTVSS VL: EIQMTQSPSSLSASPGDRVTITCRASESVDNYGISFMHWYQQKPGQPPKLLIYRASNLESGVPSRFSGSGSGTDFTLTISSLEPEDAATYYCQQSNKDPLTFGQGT ... 9.12
